Tested on: Aβ1-42
Protocol Details: Aβ1-42 content in conditioned medium of primary cortico-hippocampal neuron cultures from Tg2576 mice (ELISA; primary and secondary dose-response screening)
Format: cell-based, mouse
Experimental Setup: Mus musculus, 24 h; primary screening, drug 100 μM, Tg2576 neuron cultures; table sorted by Aβ1-42; read-out: Ab1-42 (% of ctl)
Counter-ions that a name gives are not always drawn.
Property Measured: activity at 100 µM

* COc1ccc(Cc2nccc3cc(OC)c(OC)cc23)cc1OC [Papaverine Hydrochloride] | 30.1%
* C[N+](C)(C)CCCCCC[N+](C)(C)C [Hexamethonium Bromide] | 72.6%
* CCN1C[C@]2(C)CC[C@H](OC)[C@@]34C1[C@]1(OCO[C@@]15C[C@H](OC)[C@H]1C[C@]3(O)[C@@H]5[C@H]1OC)[C@@H](OC(C)=O)[C@H]24 | 143%
* Cc1cc(C(C)(C)C)cc(C)c1CC1=NCCN1 [Xylometazoline Hydrochloride] | 71.8%

Provide activity at 100 µM, system Aβ1-42, entry CO[C@H]1[C@H](O)[C@H](O[C@H]2CC[C@@]3(C=O)[C@H](CC[C@@H]4[C@@H]3CC[C@]3(C)[C@@H](C5=CC(=O)OC5)CC[C@]43O)C2)O[C@@H](C)[C@@H]1O [Peruvoside]
90.9%

Source of measurements: patent US20100029654A1
